- target_system: MASP-2 (CCP1-CCP2-SP) (Homo sapiens (Human), UniProt O00187)
- Sequence (O00187 445-686): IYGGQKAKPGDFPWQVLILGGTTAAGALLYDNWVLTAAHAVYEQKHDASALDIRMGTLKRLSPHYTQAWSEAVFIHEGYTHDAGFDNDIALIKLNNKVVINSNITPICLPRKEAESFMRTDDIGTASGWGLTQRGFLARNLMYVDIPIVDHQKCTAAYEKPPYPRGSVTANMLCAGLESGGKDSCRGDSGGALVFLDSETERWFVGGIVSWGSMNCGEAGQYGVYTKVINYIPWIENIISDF
- assay: biochemical
- Format: biochemical
- settings: +Zn; read-out: MASP-2 Ki
pKi: −log10 of the molar value. Where a name gives a salt, the structure may show the parent alone.

compound: N=C(N)c1ccc2[nH]c(-c3ccc4ccccc4n3)nc2c1 [compound 2013, dihydrochloride]
pKi: > 6.30
//
compound: CCOc1ccnc(-c2nc3cc(C(=N)N)ccc3[nH]2)c1 [compound 2012, dihydrochloride]
pKi: > 7.30
//
compound: N=C(N)c1ccc2[nH]c(-c3cc4ccccc4cn3)nc2c1 [compound 2014, dihydrochloride]
pKi: > 6.30
//
compound: CCc1ccc(-c2nc3cc(C(=N)N)ccc3[nH]2)nc1 [compound 2007, dihydrochloride]
pKi: > 6.30
//
compound: N=C(N)c1ccc2[nH]c(Cc3nc4ccccc4[nH]3)nc2c1 [compound 2015, Dihydrochloride]
pKi: > 7.30
//
compound: COCc1cccc(-c2nc3cc(C(=N)N)ccc3[nH]2)n1 [compound 2011, dihydrochloride]
pKi: > 6.30
//
compound: Cc1ccc(-c2nc3cc(C(=N)N)ccc3[nH]2)nc1 [compound 2010, dihydrochloride]
pKi: > 7.30
//
compound: Cc1cccc(-c2nc3cc(C(=N)N)ccc3[nH]2)n1
pKi: > 7.30

----------
- target_system: MASP-2 (CCP1-CCP2-SP) (Homo sapiens (Human))
- assay: biochemical
- Assay type: biochemical
- settings: MASP-2 inhibition versus thrombin
Where a name gives a salt, the structure may show the parent alone.
reported_endpoint: MASP-2 vs. thrombin selectivity

molecule: C[C@H](NC(=O)[C@H](N)CCc1cccc(Cl)c1)C(=O)NCc1ccc(C(=N)N)cc1
reported_endpoint: MASP-2 vs. thrombin selectivity
value_reported: ** (5.0 to 25-fold)
//
molecule: C[C@@H](NC(=O)[C@H](N)CCc1ccccc1)C(=O)NCc1ccc2nc(N)[nH]c2c1
reported_endpoint: MASP-2 vs. thrombin selectivity
value_reported: **** (>100-fold)
//
molecule: C[C@H](NC(=O)[C@H](N)CCc1cc(F)ccc1F)C(=O)NCc1ccc(C(=N)N)cc1
reported_endpoint: MASP-2 vs. thrombin selectivity
value_reported: ** (5.0 to 25-fold)
//
molecule: C[C@H](NC(=O)[C@H](N)CCc1ccccc1)C(=O)NCc1ccc2nc(N)[nH]c2c1 (single isomer, unassigned) [compound 1040, Di-trifluoroacetate salt]
reported_endpoint: MASP-2 vs. thrombin selectivity
value_reported: **** (>100-fold)

----------
Reported pKi values for the following compounds.
- target_system: human α-thrombin (Homo sapiens (Human), UniProt P00734)
- assay: Enzymatic assay for thrombin (Boc-VPR-AMC substrate)
- Assay type: biochemical
- settings: read-out: Thrombin Ki
pKi: −log10 of the molar value. Where a name gives a salt, the structure may show the parent alone.

compound: Cc1nc(N)ccc1CNC(=O)[C@H](C)NC(=O)[C@H]1C[C@@H](Oc2ccccc2)CN1 [compound 1310, Dihydrochloride]
pKi: < 4.60
//
compound: C[C@H](NC(=O)[C@H](N)CCc1cc(F)ccc1F)C(=O)NCc1ccc(C(=N)N)cc1 [compound 1086]
pKi: > 6.30
//
compound: C[C@@H](C(=O)NCc1ccc(C(=N)N)cc1)N(C)C(=O)[C@H](NCC(=O)O)C1CCCCC1 [compound 1107]
pKi: > 6.30
//
compound: C[C@H](NC(=O)[C@H]1C[C@H](c2ccccc2)CN1)C(=O)NCc1ccc(C(=N)NC(=O)OCC(F)(F)F)cc1 [compound 1305]
pKi: < 4.60
